- System: UO-31 renal
- experiment.description: NCI tumour cell line growth inhibition, 48 h
Consider the following compounds and their measured TGI readings.

{"compound": "Cc1cccc(NC(=O)c2sc3nc4c(cc3c2N)CCCC4)c1C", "TGI": "> 100 µM"}
{"compound": "COc1cc2cc(Oc3ccc(NC(=O)c4cccc(C(F)(F)F)c4)cc3)c(C)nc2cc1OC", "TGI": "> 100 µM"}
{"compound": "O=C1NC(=S)NC(=O)C1C(c1ccc(Cl)cc1)C1C(=O)NC(=S)NC1=O", "TGI": "> 100 µM"}
{"compound": "CCOC(=O)/C=C(/C=C\\COC1CCCCO1)c1ccccc1 (stereo not given)", "TGI": "> 100 µM"}
{"compound": "S=c1[nH]nc(Cn2c3ccc(Br)cc3c3nc4ccccc4nc32)n1C1CCCCC1", "TGI": "> 76.2 µM"}

---

- Test system: SF-295 CNS
- experiment.description: NCI tumour cell line growth inhibition, 48 h
Peptide text beside a SMILES is read from it. * marks the point of attachment. X26 = Clc1c(Cl)c(Cl)c(O*)c(Cl)c1Cl; Boc = CC(C)(C)OC(=O)*; OBn = c1ccc(CO*)cc1; Bn = c1ccc(C*)cc1
Consider the following compounds and their measured TGI readings.

{"compound": "Fc1cccc(Cl)c1C1SCc2nc3ccccc3n21 (centres undefined)", "experimental.system": "SF-295 CNS", "TGI": "95.2 µM"}
{"compound": "CCc1ccccc1NC(=O)C(=O)C(C(=O)c1ccc(OC)cc1)c1ccc(OC)cc1 (centres undefined)", "experimental.system": "SF-295 CNS", "TGI": "> 100 µM"}
{"compound": "CC(C)CC(NC(=O)C(CCC(=O)OCc1ccccc1)NC(=O)OC(C)(C)C)C(=O)NC(COCc1ccccc1)C(=O)NC(Cc1ccccc1)C(=O)Oc1c(Cl)c(Cl)c(Cl)c(Cl)c1Cl (centres undefined) (Boc-E(OBn)LS(Bn)F-X26; configuration not given here)", "experimental.system": "SF-295 CNS", "TGI": "68.1 µM"}
{"compound": "CN(C)CCCNc1cc(O)c2c(c1O)C(=O)c1ccccc1C2=O", "experimental.system": "SF-295 CNS", "TGI": "25.9 µM"}
{"compound": "O=C1NC(=S)NC(=O)C1C(c1ccc(Cl)cc1)C1C(=O)NC(=S)NC1=O", "experimental.system": "SF-295 CNS", "TGI": "> 100 µM"}
{"compound": "CC(=O)OC1CC2(O)C(CCC3(C)C(c4ccc(=O)oc4)CCC32O)C2(C)C1=CC(O)C1OC12 (centres undefined)", "experimental.system": "SF-295 CNS", "TGI": "0.261 µM"}
{"compound": "CN(C)CCNc1c([N+](=O)[O-])sc2ccc(Cl)cc12", "experimental.system": "SF-295 CNS", "TGI": "> 100 µM"}
{"compound": "Oc1c(OCc2nnc(CCCCCCCCc3nnc(COc4ccc5ccccc5c4O)o3)o2)ccc2ccccc12", "experimental.system": "SF-295 CNS", "TGI": "> 100 µM"}
{"compound": "COC(=O)c1nc(NN)[nH]c(=O)c1CCCCCc1c(C(=O)OC)[nH]c(NN)cc1=O", "experimental.system": "SF-295 CNS", "TGI": "> 100 µM"}
{"compound": "CCOc1ccc(NCC2CC/C(=C\\C=C\\c3ccccc3)C2=O)cc1 (centres undefined)", "experimental.system": "SF-295 CNS", "TGI": "79.5 µM"}
{"compound": "CCN(CC)c1ccc(NC(=S)NN(C)C)cc1", "experimental.system": "SF-295 CNS", "TGI": "> 10 µM"}
{"compound": "CC(=O)C1(O)CCC2(O)C3(O)CC=C4CC(O)CCC4(C)C3CC(OC(=O)c3ccc(O)cc3)C12C (centres undefined)", "experimental.system": "SF-295 CNS", "TGI": "> 100 µM"}
{"compound": "Cc1ccc(C(=O)/C(=C/c2ccc([N+](=O)[O-])cc2)S(=O)Cc2ccccc2)cc1 (centres undefined)", "experimental.system": "SF-295 CNS", "TGI": "5.96 µM"}
{"compound": "CCCO/N=[N+](\\[O-])N(CC)CC", "experimental.system": "SF-295 CNS", "TGI": "> 100 µM"}
{"compound": "N=C(N)SCc1cn2ccccc2n1", "experimental.system": "SF-295 CNS", "TGI": "> 100 µM"}
{"compound": "COc1cccc(N2C(=O)CS(=O)(=O)C2c2cccc(Oc3ccccc3)c2)c1 (centres undefined)", "experimental.system": "SF-295 CNS", "TGI": "> 100 µM"}
{"compound": "Cc1cc(Cl)ccc1NC(=O)C(=O)Cc1nc2ccc(C(=O)c3ccccc3)cc2[nH]c1=O", "experimental.system": "SF-295 CNS", "TGI": "> 100 µM"}
{"compound": "O=c1c(-c2ccccc2)c(SCCN2CCCCCC2)n(-c2ccccc2)c(=S)n1-c1ccccc1", "experimental.system": "SF-295 CNS", "TGI": "> 100 µM"}
{"compound": "Nc1nc2c(ncn2Cc2ccccc2CCO)c(=O)[nH]1", "experimental.system": "SF-295 CNS", "TGI": "> 100 µM"}
{"compound": "COc1ccc(OC)c(NC(=O)C(=O)C(C(=O)c2ccccc2F)C2OC(=O)c3ccccc32)c1 (centres undefined)", "experimental.system": "SF-295 CNS", "TGI": "> 100 µM"}
{"compound": "Cc1c(C)c2cc3c(=O)ccoc3c(C)c2oc1=O", "experimental.system": "SF-295 CNS", "TGI": "> 100 µM"}
{"compound": "CCC1(Br)C(=O)NC(=O)N(C2CC(O)C(CO)O2)C1N=[N+]=[N-] (centres undefined)", "experimental.system": "SF-295 CNS", "TGI": "> 100 µM"}
{"compound": "COCC#C[C@@]1(O)CCCCC1CC(OC)OC (some centres undefined)", "experimental.system": "SF-295 CNS", "TGI": "> 100 µM"}
{"compound": "COc1ccc(C(=O)N2c3ccccc3Sc3ccccc32)c(F)c1", "experimental.system": "SF-295 CNS", "TGI": "> 100 µM"}
{"compound": "CC1(C)CCC(C)(C)c2cc(C(=O)Nc3ccc(C(=O)O)cc3)ccc21", "experimental.system": "SF-295 CNS", "TGI": "> 54.7 µM"}
{"compound": "CCN(c1ccc(CO)c(Cl)c1)C(C)c1ccc(F)cc1 (centres undefined)", "experimental.system": "SF-295 CNS", "TGI": "24.3 µM"}
{"compound": "Cn1cc(C2=C(c3cn(C)c4ccc(N)cc34)C(=O)NC2=O)c2ccccc21", "experimental.system": "SF-295 CNS", "TGI": "> 22.2 µM"}
{"compound": "COc1cc(-c2oc3ccccc3c(=O)c2O)cc(OC)c1OC", "experimental.system": "SF-295 CNS", "TGI": "> 100 µM"}
{"compound": "COc1cc(Nc2ccnc(N3CCN(c4ccnc5cc(Cl)ccc45)CC3)n2)cc(OC)c1", "experimental.system": "SF-295 CNS", "TGI": "2.13 µM"}
